- SUBJECT OF TEST: Cytochrome P450 1A2 (Homo sapiens)
- Sequence (P05177 whole entry): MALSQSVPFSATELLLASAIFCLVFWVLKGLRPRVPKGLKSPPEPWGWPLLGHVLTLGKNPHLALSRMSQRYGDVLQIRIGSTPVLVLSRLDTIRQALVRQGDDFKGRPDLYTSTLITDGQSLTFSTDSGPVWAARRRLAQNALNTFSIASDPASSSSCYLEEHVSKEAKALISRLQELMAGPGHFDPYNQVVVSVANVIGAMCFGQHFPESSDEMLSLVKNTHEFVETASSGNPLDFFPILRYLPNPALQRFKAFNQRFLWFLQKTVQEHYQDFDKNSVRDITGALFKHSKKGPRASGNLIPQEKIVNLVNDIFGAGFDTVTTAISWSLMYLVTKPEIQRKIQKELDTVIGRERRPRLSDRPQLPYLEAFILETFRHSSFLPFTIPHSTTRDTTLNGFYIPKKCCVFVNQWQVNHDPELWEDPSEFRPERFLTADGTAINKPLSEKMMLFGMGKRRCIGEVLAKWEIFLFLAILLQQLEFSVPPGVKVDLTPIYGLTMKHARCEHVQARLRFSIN
List of AC50 values.

O=C(O)[C@H]1[C@H]2CN[C@H](C(=O)O)[C@H]21
31.6 µM (inconclusive)

Enquiry: # get_value(readout='AC50', item= COCCn1c(=O)c(C)nc2cncnc21 )
Return: 15.8 µM (inconclusive)

Enquiry: # get_value(readout='AC50', item= CCNc1nnc(-c2ccncc2)s1 )
Return: 15.8 µM (inconclusive)

Enquiry: # get_value(readout='AC50', item= Cn1c(=O)oc2cc(S(=O)(=O)NCCC(=O)N3CC=C(c4ccccc4)CC3)ccc21 )
Return: 31.6 µM (inconclusive)

Enquiry: # get_value(readout='AC50', item= O=P(O)(CP(=O)(c1ccccc1)c1ccccc1)c1ccccc1O )
Return: 28.2 µM (inconclusive)

Enquiry: # get_value(readout='AC50', item= S=C(Nc1ccccc1)N1CCCCC1 )
Return: 22.4 µM (inconclusive)

Enquiry: # get_value(readout='AC50', item= Brc1c(NC2=NCCN2)ccc2nccnc12 )
Return: 39.8 µM (inconclusive)
